Tested on: HCV replicon 1A
assay remarks: microbe, parasite or virus in culture
Type: cell-based, Hepatitis C virus (HCV)
recorded conditions: HCV replicon 1A; Replicon Assay A
result type: IC50 (pM)
Answers are plain numbers, in pM.

molecule="COC(=O)N[C@H](C(=O)N1CCC[C@H]1c1ncc(-c2cc(F)c3c(c2)OC(c2ccc(CC(C)C)s2)n2c-3cc3cc(-c4cnc([C@@H]5CCCN5C(=O)[C@@H](NC(=O)OC)C(C)C)[nH]4)ccc32)[nH]1)C(C)C (single isomer, unassigned) [Compound 522]" numeric_result=23.9

# next molecule below
// COC(=O)NC(C(=O)N1[C@@H]2C[C@@H]2C[C@H]1c1ncc(-c2ccc3c(c2)cc2n3C(c3cc4c(s3)CCC4)Oc3cc(-c4cnc([C@@H]5CCCN5C(=O)[C@@H](NC(=O)OC)C(C)C)[nH]4)cc(F)c3-2)[nH]1)C(C)C (single isomer, unassigned) : IC50 value = 3.38
